These data points were gathered from PubChem BioAssay (Tox21).

protocol.summary: Nuclear factor erythroid 2-related factor 2/antioxidant responsive element (Nrf2/ARE) small molecule agonists: qHTS cell viability counter screen in human keratinocytes (AID 1919968); note: nearly all actives have a fitted effect of over 55% in size
experimental.setup: KeratinoSens HaCaT ARE cells viability, CellTiter-Fluor, 24 h; series mostly up to 92.4 µM
Inconclusive results are not listed. Active and inactive are the calls of the source. Calls come from the whole dose curve; as a rule, active = well fitted cell-killing curve with a large enough effect in the repeat runs; inconclusive = weak or mixed curves, or effect the other way; inactive = flat fitted curve, though single readings scatter.
Outcome (select one): T for active, F for inactive

INSERT INTO assay_data (compound, category_label) VALUES
  ('C=C(C)C(=O)OCCCCCCCCCCOC(=O)C(=C)C', 'F');

Which outcome was assigned to COc1ccc2sc(C(=O)Nc3nnn[nH]3)c(OC(C)C)c2c1 in this test?
T

What about CC(C)(C)CC(=O)OCC(=O)[C@@]1(O)CC[C@H]2[C@@H]3CCC4=CC(=O)C=C[C@]4(C)[C@H]3[C@@H](O)C[C@@]21C ?
F

And O=C(O)c1cccc(C(=O)O)n1 ?
F

Follow-up entry: Cc1cccc(C)c1NC(=O)c1cc(S(N)(=O)=O)c(Cl)cc1O
F
